- Test system: LNCaP xenografts
- ASSAY NOTES: Biodistribution in LNCaP xenografts
- Assay type: in vivo, mice
- CONDITION CONTEXT: 1 h after injection
MEASURED ENDPOINT: Biodistribution, Spleen (%IA/g)
Provide the reading as a plain figure in %IA/g.

I would be grateful if you could share the reported Biodistribution, Spleen for O=C([O-])CN1CCN(CC(=O)[O-])CCN(C(CCC(=O)N[C@H](Cc2ccc(O)c(I)c2)C(=O)N[C@H](Cc2ccccc2)C(=O)N[C@H](CCCCNC(=O)CCCCCCC(=O)NCCCC[C@H](NC(=O)N[C@@H](CCC(=O)O)C(=O)O)C(=O)O)C(=O)O)C(=O)O)CC1.[61Cu+2] (stereo partly drawn) [[^61Cu]Cu-NODAGA-PSMA-I&T, NODAGA-(l-y)fk(sub-KuE)] . 6.04

Look at this compound and give its reported Biodistribution, Spleen. O=C(O)CC[C@H](NC(=O)N[C@@H](CCCCNC(=O)[C@H](Cc1ccc2ccccc2c1)NC(=O)c1ccc(CNC(=O)[C@H](CCC(=O)O)NC(=O)[C@H](CCC(=O)O)NC(=O)c2ccc([18F])nc2)cc1)C(=O)O)C(=O)O [[^18F]PSMA-1007, reference compound] 11.0

Given O=C([O-])CN(CCN(CC(=O)[O-])Cc1cc(CCC(=O)NCCCCCC(=O)NCCCC[C@H](NC(=O)N[C@@H](CCC(=O)O)C(=O)O)C(=O)O)ccc1[O-])Cc1cc(CCC(=O)O)ccc1[O-].[68Ga+3].[OH3+] [[^68Ga]Ga-PSMA-11, reference compound] , state its recorded Biodistribution, Spleen. 6.38

For the compound O=C([O-])CN1CCN(CC(=O)O)CCN(CC(=O)[O-])CCN(C(CCC(=O)N[C@H](Cc2ccc(O)c(I)c2)C(=O)N[C@H](Cc2ccccc2)C(=O)N[C@H](CCCCNC(=O)CCCCCCC(=O)NCCCC[C@H](NC(=O)N[C@@H](CCC(=O)O)C(=O)O)C(=O)O)C(=O)O)C(=O)O)CC1.[61Cu+2] (stereo partly drawn) [[^61Cu]Cu-DOTAGA-PSMA-I&T, DOTAGA-(l-y)fk(sub-KuE)] , what Biodistribution, Spleen is on record? 4.64
